# experiment: Acute toxicity in iv dosed Albino Swiss CD-1 mouse assessed as lethal dose after 24 hrs
# Type: organism-based
# recorded.conditions: in vivo

{"columns": ["mol", "LD50 at 24 h"],
 "data": [
  ["C[C@]12CC/C(=N\\OCC(=O)O)C[C@@H]1[C@H](O)C[C@@H]1[C@@H]2CC[C@]2(C)C(=O)CC[C@@H]12", "> 250 mg/kg"]
]}
